Tested on: human cancer cell lines
method: Viability of eight human cancer cell lines (overall statement)
Format: cell-based
experimental.parameters: eight human cancer cell lines, 72 h; read-out: IC50s, range over all cell lines tested
pIC50: −log10 of the molar value.
quantity: pIC50

Q) Give its pIC50 value. Item: Oc1c(I)cc(Cl)c2cccnc12 [clioquinol, 5-chloro-7-iodo-8-hydroxyquinoline]
A) 4.40 to 5.00

---

Test system: M-panc-96 (pancreas)
method: MTS cell viability assay, M-panc-96
Type: cell-based
experimental.parameters: Homo sapiens, MPANC96, read-out: IC50 (μM) of clioquinol towards human tumor cell lines, 72 h, n = 3
quantity: IC50 (µM)
Kindly answer with a numeric value in µM, unit omitted.

Q) # get_value(readout='IC50', item= Oc1c(I)cc(Cl)c2cccnc12 [clioquinol, 5-chloro-7-iodo-8-hydroxyquinoline] )
A) 23.6

---

Tested on: SiHa (cervical)
method: MTS cell viability assay, SiHa
Format: cell-based
experimental.parameters: Homo sapiens, read-out: IC50 (μM) of clioquinol towards human tumor cell lines, 72 h, n = 3
quantity: IC50 (µM)
Answer in µM, number only, no unit symbol.

Q) Record request: IC50 value, item Oc1c(I)cc(Cl)c2cccnc12 [clioquinol, 5-chloro-7-iodo-8-hydroxyquinoline]
A) 38.8

---

System: MCF-7 (breast)
method: MTS cell viability assay, MCF-7
Assay type: cell-based
experimental.parameters: Homo sapiens, MCF7, read-out: IC50 (μM) of clioquinol towards human tumor cell lines, 72 h, n = 3
Description: The CellTiter 96® Aqueous ONE Solution (Promega) was used to assess cellular viability via reduction of (3-(4,5-dimethylthiazol-2-yl)-5-(3carboxymethoxyphenyl)-2-(4-sulfophenyl)-2H-tetrazolium (MTS). An ELISA-based apoptosis assay kit was from Roche, and an anti-poly (ADP-ribose) polymerase (PARP) monoclonal antibody was from BIOMOL Research Laboratories Inc. Nude mice were from Animal Technology Limited. All other reagents were analytic grade. […]
quantity: IC50 (µM)
Enter your answer as a number in µM; do not include the unit.

Q) Give recorded IC50 with MCF-7 (breast) for the following molecule: Oc1c(I)cc(Cl)c2cccnc12 [clioquinol, 5-chloro-7-iodo-8-hydroxyquinoline]
A) 29.7
